Tested on: A549 cells (Kras G12S mutation)
ASSAY_INFO: Cell proliferation inhibition experiment, 3D cell model, CellTiter-Glo (A549)
Format: cell-based, human
TEST_PARAMETERS: A549, 2% FBS F-12K, 384-well sphere plate, cultured 5 days with compound
ENDPOINT: IC50

Consider the worked cases shown below.
C=CC(=O)N1CCN(c2nc(OC[C@@H]3CCCN3C)nc3c(OC4CC4)c(-c4c(C)ccc5[nH]ncc45)c(Cl)cc23)C[C@@H]1CC#N: > 30 µM
C=CC(=O)N1CCN(c2nc(O[C@H]3CCN(C)C3)nc3c(OC4CC4)c(-c4c(C)ccc5[nH]ncc45)c(Cl)cc23)CC1 [Compound Z40]: > 1 µM

Look up and report measured IC50 for this entry: C=CC(=O)N1CCN(c2nc(OC3CCN(C)CC3)nc3c(OC4CC4)c(-c4c(C)ccc5[nH]ncc45)c(Cl)cc23)CC1 [Compound Z12]
> 10 µM

----------
Tested on: A549 cells (Kras G12S mutation)
ASSAY_INFO: Cell proliferation inhibition experiment, 3D cell model, CellTiter-Glo (A549)
Type: cell-based, human
TEST_PARAMETERS: Homo sapiens, A549, 120 h, A549, 2% FBS F-12K, 384-well sphere plate, cultured 5 days with compound
pIC50: −log10 of the molar value.
ENDPOINT: pIC50

C=CC(=O)N1CCN(c2nc(N3CCN(C)CC3)nc3c(OC4CC4)c(-c4c(C)ccc5[nH]ncc45)c(Cl)cc23)CC1 [Compound Z37]: < 5.30
C=CC(=O)N1CCN(c2nc(OC[C@@H]3CCCN3C)nc3c(OC4CC4)c(-c4c(C)ccc5[nH]ncc45)c(OC)cc23)CC1 [Compound Z49]: < 4.52

Read the entry C=CC(=O)N1CCN(c2nc(N3CCC(N(C)C)C3)nc3c(OC4CC4)c(-c4c(C)ccc5[nH]ncc45)c(Cl)cc23)CC1 (stereo not drawn) [Compound Z35] and write its reported pIC50.
< 5.30
